Test system: ragweed (common ragweed, Ambrosia elatior)
Assay: Test A greenhouse herbicide test, pre- and postemergence
Assay type: in vivo
Conditions: Preemergence, 500 g ai/ha; 0 to 100 scale, 0 no effect, 100 complete control
Item-by-item account of Plant response rating, Ragweed
Respond numerically, and do not add a unit to the figure.

Example cases with answers are listed next.
Compound: Cc1ccc2ccccc2c1-c1c(O)c(I)nn(C)c1=O [Compound 29]
Plant response rating, Ragweed: 90
//
Compound: Cn1nc(Br)c(O)c(-c2cccc3ccccc23)c1=O [Compound 20]
Plant response rating, Ragweed: 90
//
Compound: Cc1nn(C)c(=O)c(-c2c(C)sc3ccc(Br)cc23)c1O [Compound 22]
Plant response rating, Ragweed: 90
//
Compound: CCc1ccc2ccccc2c1-c1c(OC(=O)C2CC2)c(C)nn(C)c1=O [Compound 38]
Plant response rating, Ragweed: 70
//
Compound: CCc1nn(CC)c(=O)c(-c2c(C)oc3ccc(C)cc23)c1O [Compound 64]
Plant response rating, Ragweed: 0

Plant response rating, Ragweed recorded for this compound, COc1ccc(-c2c(O)c(C)nn(C)c2=O)c2ccccc12 [Compound 58] , is 80

Entry Cc1cc2ccccc2c(-c2c(O)c(C)nn(C)c2=O)c1C [Compound 34] , Plant response rating, Ragweed reported as 90

----------
System: ryegrass, Italian (Italian ryegrass, Lolium multiflorum)
Assay: Test A greenhouse herbicide test, pre- and postemergence
Format: in vivo
Details: Preemergence, 500 g ai/ha; 0 to 100 scale where 0 is no effect and 100 is complete control
Parameter: Plant response rating, Ryegrass, Italian
A bare number is all that is needed in reply.

# example entries with known answers
Molecule: Cc1sc2ccccc2c1-c1c(O)c(Cl)nn(C)c1=O [Compound 89]
Quantitative Readout: 90
//
Molecule: CCOc1ccc2cccc(-c3c(O)c(C)nn(C)c3=O)c2c1 [Compound 92]
Quantitative Readout: 0
//
Molecule: Cc1nn(C)c(=O)c(-c2cccc3ccc(C4CC4)cc23)c1O [Compound 71]
Quantitative Readout: 70
//
Molecule: CCC(=O)Oc1c(Br)nn(C)c(=O)c1-c1c(C)ccc2ccccc12 [Compound 156]
Quantitative Readout: 100
//
Molecule: COC(=O)Oc1c(OC)nn(C)c(=O)c1-c1c(C)ccc2ccccc12 [Compound 136]
Quantitative Readout: 100
//
Molecule: Cc1ccc2oc(C)c(-c3c(O)c(C(C)C)nn(C)c3=O)c2c1 [Compound 119]
Quantitative Readout: 0
//
Molecule: Cc1nn(C)c(=O)c(-c2c(C)n(C)c3ccc(Cl)cc23)c1O [Compound 74]
Quantitative Readout: 0
//
Molecule: CCC(=O)Oc1c(C)nn(C)c(=O)c1-c1ccc(Br)c2ccccc12 [Compound 134]
Quantitative Readout: 100

Lab note: next molecule to report on.
Lab note: CC(=O)Oc1c(Cl)nn(C)c(=O)c1-c1c(C)sc2ccc(Cl)cc12 [Compound 116] gave Plant response rating, Ryegrass, Italian of 100

----------
Overview of recorded Kochia plant response rating for various compounds
Tested on: kochia (Kochia scoparia)
Assay: Test C greenhouse herbicide test, postemergence
Assay type: in vivo
Conditions: Postemergence, 62 g ai/ha; 0 to 100 scale (0 no effect, 100 complete control)
Number, no unit, nothing else.

Here is how some compounds turned out for Kochia plant response rating.
Item Smiles: Cc1nn(C)c(=O)c(-c2ccc(Cl)c3ccccc23)c1O
Parameter: Kochia plant response rating
Quantitative Readout: 100
//
Item Smiles: COC(=O)Oc1c(C)nn(C)c(=O)c1-c1ccc(Br)c2ccccc12
Parameter: Kochia plant response rating
Quantitative Readout: 98
//
Item Smiles: COC(=O)Oc1c(OC)nn(C)c(=O)c1-c1c(C)ccc2ccccc12
Parameter: Kochia plant response rating
Quantitative Readout: 95

Here is another compound to look at.
Lab note: `CCC(=O)Oc1c(C)nn(C)c(=O)c1-c1ccc(Br)c2ccccc12` gave Kochia plant response rating of 100
